- procedureText: Human HepG2 cell viability assay in 384 well format
- Type: toxicity, cell-based
- Set-up: dose 125 nL, time 70.5 hour; concentration not given beside the values
- measurementSetup: HepG2 cells, read-out: Inhibition
measurementName: cytotoxicity at 70.5 h (%)

> print(dat)
                                    compound  recordedresult
 1      CCS(=O)(=O)c1ccccc1N1CCC(NC(C)=O)CC1           -4.79
 2       Cc1cccc(CN2CCC(n3cc(CCO)nn3)CC2)c1C             2.7
 3    CC(C)(CO)CCCNC(=O)N1CCc2c(F)ccc(F)c2C1           -2.98
 4  Cc1cc(CS(=O)(=O)CC(=O)N2c3ccccc3CC2C)no1 (stereo not given)          -0.335
 5  CO[C@@H]1CCC[C@@H](NC(=O)c2cccc(F)c2)[C@H]1O            -1.9
 6  COc1ccc(CN[C@@H]2CO[C@H](CNC(=O)N3CCOCC3)[C@H]2O)cc1             2.1
 7  Cc1nn(C)cc1CN1CCCn2nc(CNC(=O)C3CCC3)cc2C1            -3.2
 8      CN(C)S(=O)(=O)c1csc(C(=O)N2CCSCC2)c1           -1.94
 9  CCN(C(=O)CN1CCCC1Cc1ccccc1)c1ccccc1 (stereo not given)            8.48
10  CC(C)c1nc(C2CCCN(c3nccc(N4CCCC4)n3)C2)no1 (stereo not given)           -2.95
11                CC(=O)N(C/C=C/c1ccccc1)CCO            7.41
12  CN(C)C(=O)c1cncnc1-c1ccc(CNC(=O)C2CCCO2)cc1 (stereo not given)            10.6
13  O=S(=O)(C1CC1)N1CCC2(CCCN(Cc3ccccn3)C2)C1 (stereo not given)           -0.34
14  Cn1ccc(C(=O)N2CCC(Cc3cnc4[nH]ccc4c3)CC2)n1           -5.86
15  Cc1ncsc1CN1C[C@H](C(=O)N2CCCO2)[C@@H]2CCO[C@@H]2C1          -0.785
16   O=S(=O)(Nc1cnc(N2CCOCC2)nc1)c1cccc(F)c1            1.23
17   CO[C@H]1CC[C@H]2[C@H]1OCCN2CCOCc1ccccc1           -11.7
18  COc1cccc(CNC(=O)c2nc3c(o2)CN(S(C)(=O)=O)C3)c1           -6.24
19               Cc1c(Br)cccc1CSc1nnc(CO)n1C              14
20     CN(Cc1ccco1)Cc1cnc2n1CCN(c1ncccn1)CC2           -9.53

====

- procedureText: Human HepG2 cell viability assay in 384 well format
- Format: toxicity, cell-based
- Set-up: dose 125 nL, time 70.5 hour; concentration not given beside the values
- measurementSetup: HepG2 cells, read-out: Inhibition
Measured cytotoxicity at 70.5 h values are reported for all entries that follow.
measurementName: cytotoxicity at 70.5 h (%)

> print(dat)
                                   molecule  recordedresult
1  CC(C)c1nc2n(n1)CC(NCc1nc(-c3cccnc3)no1)CC2 (configuration not stated)            21.9
2  CN(CC(=O)N1CCCC1)Cc1nc2c(cnn2C)c(=O)[nH]1           -10.6
3   CCN(CCNS(=O)(=O)C1CCOCC1)C(=O)OC(C)(C)C           -5.67
4  Cc1nccn1Cc1cccc(CNC(=O)c2ccn(C)c(=O)c2)c1            13.1
5          OC1CCN(CCCNc2nccc(C3CCCC3)n2)CC1           -2.73
6  COc1cc(C)nc(N2CCN(C(=O)COCC(F)(F)F)CC2)n1           -15.4
7     Clc1ccccc1CCn1ccnc1-c1cn(C2CCNCC2)nn1           -8.18

====

Measured cytotoxicity at 70.5 h values are reported for all entries that follow.
- procedureText: Human HepG2 cell viability assay in 384 well format
- Format: toxicity, cell-based
- Parameters: dose 125 nL, time 70.5 hour; concentration not given beside the values
- measurementSetup: HepG2 cells, read-out: Inhibition
measurementName: cytotoxicity at 70.5 h (%)

> print(dat)
                                    molecule         measurementname  recordedresult
 1  CCOc1ccccc1C(=O)Nc1cccc(C[S+](C)[O-])c1C (stereo unspecified)  cytotoxicity at 70.5 h            15.1
 2  CCC(Nc1ccc(Oc2ccccc2OC)cc1)C(N)=O (stereo unspecified)  cytotoxicity at 70.5 h           -4.77
 3     CCc1cc(NCCCc2nc(C)no2)nc(-c2ccncc2)n1  cytotoxicity at 70.5 h           -5.75
 4  CN1CCN(C(=O)CCCc2ccccc2)CC(O)(Cn2cccn2)C1 (stereo unspecified)  cytotoxicity at 70.5 h           -2.15
 5  O=C(C1CC(=O)N(c2ccccc2Br)C1)N1CCN(CC(F)(F)F)CC1 (stereo unspecified)  cytotoxicity at 70.5 h           -8.32
 6  Cc1[nH]ncc1C(C)NCc1cccnc1 (stereo unspecified)  cytotoxicity at 70.5 h            5.33
 7  CS(=O)(=O)N1CCC2(CC1)CC(Oc1ccccn1)CO2 (stereo unspecified)  cytotoxicity at 70.5 h           -3.34
 8        CC(C)n1c(=O)c2ccccc2n(CCN(C)C)c1=O  cytotoxicity at 70.5 h            -8.7
 9          N#Cc1cccnc1NCCNC(=O)NCCSC(F)(F)F  cytotoxicity at 70.5 h           -10.1
10  CC(NC(=O)Nc1cc(F)ccc1N1CCCCC1)c1nncn1C (stereo unspecified)  cytotoxicity at 70.5 h           -4.36
11             COCCNC(=O)Nc1cc2c(cc1SC)OCCO2  cytotoxicity at 70.5 h           -4.52
12  CC(=O)N1CCC2(CCN(CC(C)C)C2)C1 (stereo unspecified)  cytotoxicity at 70.5 h           -5.21
13  CC(C)c1cc(C(=O)N2CCN(c3cccc(C(=O)O)c3)CC2)n(C)n1  cytotoxicity at 70.5 h           -13.2
14  CCOCC1CN(C(=O)Cc2cccs2)Cc2ccnn2C1 (stereo unspecified)  cytotoxicity at 70.5 h           -9.44
15  COc1cc(CN2C[C@@H]3CNC(=O)[C@H](C)[C@@H]3C2)cc(OC)c1  cytotoxicity at 70.5 h           -9.46
16  Cc1noc(C2CCC3(CCN(C(=O)c4cc(C5CC5)on4)CC3)O2)n1 (stereo unspecified)  cytotoxicity at 70.5 h          -0.565
17          O=C(CCc1nccs1)N1CCN(c2ccccn2)CC1  cytotoxicity at 70.5 h            8.13
18  Cc1nc(C(=O)NC2CCN(CCOc3ccc(Br)cc3)CC2)cs1  cytotoxicity at 70.5 h            1.52
19  COc1nccc(N2CC[C@@H](N3CCCCCC3)[C@H](O)C2)c1C#N  cytotoxicity at 70.5 h           -11.1
20  CCOCCn1c(=O)[nH]c2cc(C(=O)N(C)Cc3nc(C)c[nH]3)ccc21  cytotoxicity at 70.5 h           -5.85
21  Cc1nccc(C(=O)N2CCCN(Cc3cnn(C(C)C)c3)CC2)n1  cytotoxicity at 70.5 h            -4.5
22           CCOC(=O)CCNC(=O)c1nc(OCC)ccc1Cl  cytotoxicity at 70.5 h           -3.61
23  CCOCCC(=O)N1CCN(CC(C)O)CC1 (stereo unspecified)  cytotoxicity at 70.5 h              16
24  Cc1cn2nc(N3CCCC3C(=O)N3CCSCC3)sc2n1 (stereo unspecified)  cytotoxicity at 70.5 h           -8.52
25    COCCOc1ccc(S(=O)(=O)Nc2cccc(O)c2F)cc1C  cytotoxicity at 70.5 h           -7.45
26    O=S(=O)(c1cnccc1N1CCN(CCO)CC1)N1CCOCC1  cytotoxicity at 70.5 h            11.8
27  Clc1ccc(C(CNCc2ccncc2)n2cccn2)cc1 (stereo unspecified)  cytotoxicity at 70.5 h           -1.54
28            Cc1cc(CNc2ccc(C(F)(F)F)cc2)no1  cytotoxicity at 70.5 h           -7.03
29  CNC(=O)c1nc(CN2CCOC(Cc3ccc(F)cc3)C2)no1 (stereo unspecified)  cytotoxicity at 70.5 h           -15.2
30  CS(=O)(=O)N1CCC2(CC1)CN(CCn1cccn1)C(=O)CO2  cytotoxicity at 70.5 h             8.7
31  CCc1ccccc1NC(=O)c1cccc(N(C)S(C)(=O)=O)c1C  cytotoxicity at 70.5 h           -4.65
32  O=C(CCS(=O)(=O)C1CCCC1)N1CCCC1c1ccsc1 (stereo unspecified)  cytotoxicity at 70.5 h           -4.99
33  COc1ccnc(N2C[C@@H]3CC[C@H](C2)N(CC2CC2)C3)n1  cytotoxicity at 70.5 h            4.47
34  CCCN1CCCC2(CCN(S(=O)(=O)c3cccnc3)C2)C1=O (stereo unspecified)  cytotoxicity at 70.5 h            2.74
35  Cc1nc(CN2CCC3(CCN(C(=O)c4ccoc4C)CC3)C2)cs1  cytotoxicity at 70.5 h           -6.97
36  Cc1cc(C(=O)NCC2CCCO2)c(C)n1-c1cccnc1 (stereo unspecified)  cytotoxicity at 70.5 h           -10.8
37                  O=C(NCCSC1CCCC1)c1cnccn1  cytotoxicity at 70.5 h            29.4
38  NC(=O)CN(C(=O)C1Cc2cc(Cl)ccc2O1)C1CCCC1 (stereo unspecified)  cytotoxicity at 70.5 h            24.1
39  CN(Cc1ccncc1)C1COC2(CCN(c3ncc(F)cn3)CC2)C1 (stereo unspecified)  cytotoxicity at 70.5 h           -1.66
40        CC(=O)NCCNC(=O)c1cc(C)ccc1SC1CCCC1  cytotoxicity at 70.5 h           -11.6
41  CCCc1nc(C)cc(NC(C)Cc2cnccn2)n1 (stereo unspecified)  cytotoxicity at 70.5 h           -10.8

From: ChEMBL document CHEMBL3507680
